# reported composite z-score; entries follow
Target: Calmodulin-1 (Homo sapiens) (UniProt P0DP23)
Test: calcium-bound CALM1 binders on microarrays, profiling panel, artefact control for SMM control-protein annotation, biochemical, small-molecule microarray, Cy5-labelled CALM1, plus calcium (AID 1112);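 further: score merges spot fluorescence with signal to noise from triplicate slides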
Details: Cy5-CALM1 binding fluorescence, higher = more signal
Output: the number by itself.

CC(C)OC(=O)CC(=O)CC(O)c1ccc([N+](=O)[O-])cc1 (centres undefined) = -0.833
COc1ccc([Si](C)(C)[C@@H]2[C@@H](CCn3cc([C@H](O)c4ccccc4)nn3)O[C@]3(C(=O)N(c4ccccc4)c4ccccc43)[C@H]2C)cc1 = -0.336
CCOC(=O)C1=CC[C@@H](c2ccccc2)N(S(=O)(=O)c2ccc(C)cc2)[C@H]1c1cccc(OC)c1 = 0.622

Q: Look at this compound and give its reported composite z-score. C=C/C=C/[C@@H]1C(=C)CN([C@@H](Cc2ccccc2)C(=O)OC)[C@H]1[C@@H](O)Cc1ccccc1
A: -0.547

The measured values listed here are drawn from PubChem BioAssay.
